- Assay Target: T1, PD-1 (analyte in the BIAcore X100 assay) (UniProt Q15116 25-167, limits assumed)
- T1 construct: also called Programmed Cell Death 1
- T1 sequence (Q15116 25-167 limits assumed): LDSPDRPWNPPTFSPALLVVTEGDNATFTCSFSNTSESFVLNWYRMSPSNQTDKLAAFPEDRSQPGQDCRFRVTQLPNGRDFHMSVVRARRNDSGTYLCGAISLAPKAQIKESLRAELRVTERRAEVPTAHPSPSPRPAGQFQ
- Experiment: SPR, BIAcore X100, antibody captured by anti-human IgG on CM5 chip, PD-1 as analyte
Result Type: koff
Answer by giving the amount and then stating its unit.

Example binders with recorded koff:
1) DFPD1-11 full-length anti-PD-1 monoclonal antibody (antibody, human IgG4 S228P, kappa, V domains shown, Expressed in HEK293E cells and purified on protein A) VH: QVQLVESGGGVVQPGRSLRLDCKASGITFSNNGMHWVRQAPGKGLEWVAVIWYDSSRKYYADSVKGRFTISRDNSKNTLFLQMNSLRAEDTAVYYCATNNDYWGQGTLVTVSS VL: DIQMTQSPSSLSASVGDRVTITCRASQSIHNYLDWYQQKPGKAPKLLIYNASTRATGVPSRFSGSGSGTDFTLTISSLQPEDFATYYCQQELHLPLTFGQGTKVEIKR :: 0.000102 s⁻¹
2) DFPD1-13 full-length anti-PD-1 monoclonal antibody (antibody, human IgG4 S228P, kappa, V domains shown, Expressed in HEK293E cells and purified on protein A) VH: QVQLVESGGGVVQPGRSLRLDCKASGITFSNNGMHWVRQAPGKGLEWVAVIWYDSSRKYYADSVKGRFTISRDNSKNTLFLQMNSLRAEDTAVYYCATNNDYWGQGTLVTVSS VL: DIQMTQSPSSLSASVGDRVTITCRASQSVSNYLDWYQQKPGKAPKLLIYDASTRATGVPSRFSGSGSGTDFTLTISSLQPEDFATYYCQQNMQLPLTFGQGTKVEIKR :: 0.000108 s⁻¹

The record that follows has no koff shown yet.
Field request: koff | item: DFPD1-9 full-length anti-PD-1 monoclonal antibody (antibody, human IgG4 S228P, kappa, V domains shown, Expressed in HEK293E cells and purified on protein A) VH: QVQLVESGGGVVQPGRSLRLDCKASGITFSNYGMHWVRQAPGKGLEWVAVIWYDSSRKYYADSVKGRFTISRDNSKNTLFLQMNSLRAEDTAVYYCATNNDYWGQGTLVTVSS VL: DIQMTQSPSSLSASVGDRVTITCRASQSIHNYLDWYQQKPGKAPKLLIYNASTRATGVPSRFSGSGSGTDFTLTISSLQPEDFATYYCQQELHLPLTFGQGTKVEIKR 0.000105 s⁻¹
